SYSTEM UNDER TEST: bovine serum albumin (BSA) (Bos taurus, UniProt P02769)
Construct: gene ALB; native plasma protein, commercial (Sigma-Aldrich), mature form
Sequence (P02769 25-607): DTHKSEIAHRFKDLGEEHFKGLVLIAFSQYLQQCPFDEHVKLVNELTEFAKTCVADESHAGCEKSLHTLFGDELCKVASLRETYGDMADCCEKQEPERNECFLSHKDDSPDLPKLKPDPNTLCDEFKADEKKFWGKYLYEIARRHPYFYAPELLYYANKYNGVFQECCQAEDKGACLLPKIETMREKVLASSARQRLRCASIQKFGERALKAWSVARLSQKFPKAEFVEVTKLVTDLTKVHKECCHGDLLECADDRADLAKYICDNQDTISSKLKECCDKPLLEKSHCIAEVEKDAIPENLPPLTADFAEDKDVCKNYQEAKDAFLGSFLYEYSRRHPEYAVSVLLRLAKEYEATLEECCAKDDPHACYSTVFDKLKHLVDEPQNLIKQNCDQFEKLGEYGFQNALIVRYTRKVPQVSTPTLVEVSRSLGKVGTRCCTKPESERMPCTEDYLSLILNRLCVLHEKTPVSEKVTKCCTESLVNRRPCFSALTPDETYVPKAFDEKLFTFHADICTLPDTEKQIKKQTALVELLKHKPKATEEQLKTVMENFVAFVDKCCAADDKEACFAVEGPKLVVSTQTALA
ASSAY INFO: intrinsic fluorescence quenching, excitation […] nm
Type: binding
EXPERIMENTAL CONTEXT: 297 K, phosphate buffer pH 7.5, no site marker; double-log
MEASURED ENDPOINT: Binding / Kb × 10^5 [dm^3.mol^-1]

Sample records with Binding / Kb × 10^5 [dm^3.mol^-1]:
**Q:** Please give the measured Binding / Kb × 10^5 [dm^3.mol^-1] for this compound: O=C1c2ccccc2C(=O)N1CC(O)CN1CCN(C(c2ccccc2)c2ccccc2)CC1 (stereo not shown)
**A:** 1.99 × 10^5 dm^3·mol^−1

**Q:** Please give the measured Binding / Kb × 10^5 [dm^3.mol^-1] for this compound: O=C1c2ccccc2C(=O)N1CC(O)CN1CCN(c2ccccc2)CC1 (stereo not shown)
**A:** 2.13 × 10^5 dm^3·mol^−1

**Q:** Please give the measured Binding / Kb × 10^5 [dm^3.mol^-1] for this compound: O=C1c2ccccc2C(=O)N1CC(O)CN1CCN(c2cccc(C(F)(F)F)c2)CC1 (stereo not shown)
**A:** 1.75 × 10^5 dm^3·mol^−1

Next up:
**Q:** Please give the measured Binding / Kb × 10^5 [dm^3.mol^-1] for this compound: COc1ccccc1N1CCN(CC(O)CN2C(=O)c3ccccc3C2=O)CC1 (stereo not shown)
**A:** 0.55 × 10^5 dm^3·mol^−1
